Tested on: MCF7
method_notes: Growth inhibition of human MCF7 cells at 10 uM after 48 hrs by SRB assay relative to control
Assay type: functional
condition_description: MCF7, 48 h, read-out: GI
Everything with inhibition of growth at 10 µM lower than 80% is condition not met; everything else, including exactly 80%, is condition met.

# smiles_input, label
records = [
    ("C=C(C)[C@@H]1CC[C@]2(C(=O)O)CC[C@]3(C)[C@H](CC[C@@H]4[C@@]5(C)C/C(=C\\c6ccc([N+](=O)[O-])cc6)[C@H](O)C(C)(C)[C@@H]5CC[C@]43C)[C@@H]12", "condition met"),
    ("C=C(C)[C@@H]1CC[C@]2(C(=O)O)CC[C@]3(C)[C@H](CC[C@@H]4[C@@]5(C)C/C(=C\\c6ccc(Br)o6)[C@H](O)C(C)(C)[C@@H]5CC[C@]43C)[C@@H]12", "condition not met"),
    ("C=C(C)[C@@H]1CC[C@]2(C(=O)O)CC[C@]3(C)[C@H](CC[C@@H]4[C@@]5(C)C/C(=C\\c6ccccc6Br)[C@H](O)C(C)(C)[C@@H]5CC[C@]43C)[C@@H]12", "condition not met"),
    ("C=C(C)[C@@H]1CC[C@]2(C(=O)O)CC[C@]3(C)[C@H](CC[C@@H]4[C@@]5(C)C/C(=C\\c6cccc7ccccc67)[C@H](O)C(C)(C)[C@@H]5CC[C@]43C)[C@@H]12", "condition not met"),
    ("C=C(C)[C@@H]1CC[C@]2(C(=O)O)CC[C@]3(C)[C@H](CC[C@@H]4[C@@]5(C)C/C(=C\\c6ccc(Br)cc6)C(=O)C(C)(C)[C@@H]5CC[C@]43C)[C@@H]12", "condition not met"),
    ("C=C(C)[C@@H]1CC[C@]2(C(=O)O)CC[C@]3(C)[C@H](CC[C@@H]4[C@@]5(C)C/C(=C\\c6cc(Br)ccc6OC)[C@H](O)C(C)(C)[C@@H]5CC[C@]43C)[C@@H]12", "condition not met"),
    ("C=C(C)[C@@H]1CC[C@]2(C(=O)O)CC[C@]3(C)[C@H](CC[C@@H]4[C@@]5(C)C/C(=C\\c6cccnc6)[C@H](O)C(C)(C)[C@@H]5CC[C@]43C)[C@@H]12", "condition not met"),
    ("C=C(C)[C@@H]1CC[C@]2(C(=O)O)CC[C@]3(C)[C@H](CC[C@@H]4[C@@]5(C)C/C(=C\\c6cccc([N+](=O)[O-])c6)[C@H](O)C(C)(C)[C@@H]5CC[C@]43C)[C@@H]12", "condition not met"),
    ("C=C(C)[C@@H]1CC[C@]2(C(=O)O)CC[C@]3(C)[C@H](CC[C@@H]4[C@@]5(C)C/C(=C\\c6ccc(F)cc6)[C@H](O)C(C)(C)[C@@H]5CC[C@]43C)[C@@H]12", "condition not met"),
    ("C=C(C)[C@@H]1CC[C@]2(C(=O)O)CC[C@]3(C)[C@H](CC[C@@H]4[C@@]5(C)C/C(=C\\c6cc(Br)ccc6OC)C(=O)C(C)(C)[C@@H]5CC[C@]43C)[C@@H]12", "condition met"),
    ("C=C(C)[C@@H]1CC[C@]2(C(=O)O)CC[C@]3(C)[C@H](CC[C@@H]4[C@@]5(C)C/C(=C\\c6ccc(OC)cc6)[C@H](O)C(C)(C)[C@@H]5CC[C@]43C)[C@@H]12", "condition not met"),
]
